# test_method_notes: yeast display, Sf9 membrane polyspecificity reagent, FACS + sequencing; frameworks hold sequencing errors

sequence	polyreactivity (PSR sort gate)
QVQLVESGGGLVQAGGSLRLSCAASGSIFDDYAMGWYRQAPGKESELVAAITSGASTNYADSVKGRFTISRDNAKNTFSLQMNSLKPEDTAVYYCAADHDYFVNTDKFDDYWGQGTQVTVSS	low polyreactivity
QVQLVESGGGLVQAGGSLRLSCAASGFTFPGYTMGWSRQAPGKERELVAAISTSGGSTYYADSVKGRFTISRDNAKNTVYLQMNSLKPEDTAVYYCAAAKPRVISQNIIYDYWGQGTQVTVSS	high polyreactivity
QVQLVESGGGLVQAGGSLRLSCAASGFIFSHNAMGWYRQAPGKERELVAAISDGGGRTYYADSVKGRFTISRDNAKNTVYLQMNSLKPEDTEVYYCAVLWPYYERYYYWGQGTQVTVSS	high polyreactivity
QVQLVESGGGLVQAGGSLRLRCAASGLIFAEYAIGWYRQAPGKERELVARITSGGSTDYADSVKGRFTISRDNAKNTVYLQMNSLKPEDTAVYYCAARYYSQDKNASTASDFDYWGQGTQVTVSS	low polyreactivity
RVQLGESGGGLVQAGGSLRLSCAASGRTFVRYAMGWYRQAPGKERELVAAISYRGASTFYADSVKGRFTISRDNAKNTVYLQMNSLNPEDTAVYSCATDPRIRYQGNPYDYWGQGTQVTVSS	high polyreactivity
